system_name: PSOMT1 ((R,S)-reticuline 7-O-methyltransferase) (Papaver somniferum, UniProt Q6WUC2)
Construct: The full-length cDNA generated by RT-PCR was ligated into pFastBac HTa; His6 (N); made in house; host or cells: Spodoptera frugiperda Sf9 (baculovirus, pFastBac HTa)
Sequence (Q6WUC2 whole entry): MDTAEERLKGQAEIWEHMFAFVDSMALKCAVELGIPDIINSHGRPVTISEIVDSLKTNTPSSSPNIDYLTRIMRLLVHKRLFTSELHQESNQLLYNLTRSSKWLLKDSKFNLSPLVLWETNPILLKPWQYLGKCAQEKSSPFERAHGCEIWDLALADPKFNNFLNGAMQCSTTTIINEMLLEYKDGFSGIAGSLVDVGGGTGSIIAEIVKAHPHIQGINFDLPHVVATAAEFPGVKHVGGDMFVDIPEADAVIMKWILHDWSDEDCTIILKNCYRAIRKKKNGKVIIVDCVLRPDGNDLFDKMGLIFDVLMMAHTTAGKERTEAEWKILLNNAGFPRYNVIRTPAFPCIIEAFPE
assay_details: HPLC-MS identification of enzymic products of PSOMT1
Assay type: biochemical
experimental_setup: HPLC-MS of enzymic product
experimental_readout: position of O-methylation by PSOMT1

{"compound": "COc1ccc(C[C@H]2c3cc(O)c(OC)cc3CCN2C)cc1O [(S)-Reticuline]", "value_observed": "O-methylated at C-7"}
{"compound": "COc1cc(C[C@@H]2c3cc(O)c(OC)cc3CCN2C)ccc1O (racemic) [(R,S)-Orientaline]", "value_observed": "O-methylated at C-7"}
{"compound": "COc1ccc(C[C@@H]2c3cc(O)c(OC)cc3CCN2C)cc1O [(R)-Reticuline]", "value_observed": "O-methylated at C-7"}

====

system_name: PSOMT2 ((R,S)-norcoclaurine 6-O-methyltransferase) (Papaver somniferum, UniProt Q6WUC1)
Construct: The full-length cDNA generated by RT-PCR was ligated into pFastBac HTa; His6 (N); made in house; host or cells: Spodoptera frugiperda Sf9 (baculovirus, pFastBac HTa)
Sequence (Q6WUC1 whole entry): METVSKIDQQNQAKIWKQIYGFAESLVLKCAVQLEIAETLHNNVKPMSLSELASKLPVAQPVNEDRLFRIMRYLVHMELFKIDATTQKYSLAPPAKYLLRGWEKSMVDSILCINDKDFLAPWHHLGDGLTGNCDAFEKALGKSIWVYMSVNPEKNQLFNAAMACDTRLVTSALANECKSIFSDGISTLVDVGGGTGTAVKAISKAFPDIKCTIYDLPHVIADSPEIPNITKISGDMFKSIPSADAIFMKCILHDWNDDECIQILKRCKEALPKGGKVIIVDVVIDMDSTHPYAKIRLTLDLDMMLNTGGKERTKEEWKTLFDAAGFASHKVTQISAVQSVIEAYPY
assay_details: Radioassay of recombinant PSOMT2 with [methyl-3H]-AdoMet (substrate specificity, kinetics, pH and temperature optima)
Type: biochemical
experimental_setup: 100% activity = 2.0 pmoles/sec/mg total protein; radioassay
experimental_readout: Substrate specificity, relative activity of PSOMT2 (%)
Use % as the unit, but write only the number.

These solved cases illustrate the format of a correct answer.
{"compound": "O=C(O)c1ccc(O)c(O)c1", "system_name": "PSOMT2 ((R,S)-norcoclaurine 6-O-methyltransferase) (Papaver somniferum, UniProt Q6WUC1)", "value_observed": 0}
{"compound": "COc1ccc(C[C@@H]2c3cc(OC)c(O)cc3CCN2C)cc1O [(R)-Protosinomenine]", "system_name": "PSOMT2 ((R,S)-norcoclaurine 6-O-methyltransferase) (Papaver somniferum, UniProt Q6WUC1)", "value_observed": 0}
{"compound": "COc1cc(C(=O)O)ccc1O", "system_name": "PSOMT2 ((R,S)-norcoclaurine 6-O-methyltransferase) (Papaver somniferum, UniProt Q6WUC1)", "value_observed": 0}
{"compound": "O=c1c(O)c(-c2ccc(O)cc2O)oc2cc(O)cc(O)c12", "system_name": "PSOMT2 ((R,S)-norcoclaurine 6-O-methyltransferase) (Papaver somniferum, UniProt Q6WUC1)", "value_observed": 0}
{"compound": "COC1=C[C@]23CCN(C)[C@H](Cc4ccc(OC)c(O)c42)C3=CC1=O", "system_name": "PSOMT2 ((R,S)-norcoclaurine 6-O-methyltransferase) (Papaver somniferum, UniProt Q6WUC1)", "value_observed": 0}

# input compound: `COc1ccc(C(=O)O)cc1O` ; wanted: its Substrate specificity, relative activity of PSOMT2
0

Data request, read-out Substrate specificity, relative activity of PSOMT2, for COc1cc2c(cc1O)[C@H](Cc1ccc(OC)c(OC)c1)N(C)CC2 (racemic) [(R,S)-Codamine]
0

Query (compound): COc1ccc2c(c1)CCN[C@@H]2Cc1ccc(OC)c(O)c1 [(R)-7-Dehydroxy-norreticuline] ; field requested: Substrate specificity, relative activity of PSOMT2
0

Look up Substrate specificity, relative activity of PSOMT2 for this compound: COc1cc(C[C@@H]2c3cc(O)c(OC)cc3CCN2C)ccc1O (racemic) [(R,S)-Orientaline]
0

Given COc1cc2c(cc1O)C(Cc1ccc(O)c(O)c1)N(C)CC2 (racemic) [(R,S)-6-O-Methyllaudanosoline] , state its recorded Substrate specificity, relative activity of PSOMT2.
0

Sample `CN1CC[C@]23c4c5ccc(O)c4O[C@H]2[C@@H](O)C=C[C@H]3[C@H]1C5` — what was its Substrate specificity, relative activity of PSOMT2?
0

Dear colleague, I am looking for the recorded Substrate specificity, relative activity of PSOMT2 of the following compound: COc1ccc(C[C@H]2c3cc(O)c(OC)cc3CCN2C)cc1O [(S)-Reticuline]
0

Requested field: Substrate specificity, relative activity of PSOMT2. Item: COc1ccc(C[C@H]2c3cc(O)c(O)cc3CCN2C)cc1O [(S)-4′-O-Methyllaudanosoline]
0

Which value of Substrate specificity, relative activity of PSOMT2 has been reported for COc1ccc(C[C@H]2NCCc3cc(OC)c(O)cc32)cc1O [(R)-Norreticuline] in the records?
0

What value of Substrate specificity, relative activity of PSOMT2 has been reported for the following compound? `O=C(O)/C=C/c1ccc(O)c(O)c1`
0

Substrate specificity, relative activity of PSOMT2 for COc1cc(CC2c3cc(OC)c(O)cc3CCN2C)ccc1O (racemic) [(R,S)-Isoorientaline] ?
47

So what does the record say about Substrate specificity, relative activity of PSOMT2 for COc1ccc2c(c1)CCN[C@H]2Cc1ccc(OC)c(O)c1 [(S)-7-Dehydroxy-norreticuline] ?
0

I am curious: what Substrate specificity, relative activity of PSOMT2 value has been reported for COc1cc2c(cc1O)[C@H](Cc1ccc(O)cc1)NCC2 [(S)-Coclaurine] ?
0

For the compound shown here, `O=c1c(O)c(-c2ccc(O)c(O)c2)oc2cc(O)cc(O)c12` , give the reported Substrate specificity, relative activity of PSOMT2.
0

Which Substrate specificity, relative activity of PSOMT2 value belongs to COc1ccc(C[C@@H]2c3cc(O)c(OC)cc3CCN2C)cc1O [(R)-Reticuline] ?
0

Recorded Substrate specificity, relative activity of PSOMT2 of COc1ccc(C[C@@H]2NCCc3cc(OC)c(O)cc32)cc1O [(S)-Norreticuline] , please.
0

Which Substrate specificity, relative activity of PSOMT2 value belongs to `O=c1ccc2cc(O)c(O)cc2o1` ?
0

Which Substrate specificity, relative activity of PSOMT2 value belongs to `NCCc1ccc(O)c(O)c1` ?
0

I have this compound here, COc1cc(CC2NCCc3cc(OC)c(O)cc32)ccc1O (racemic) [(R,S)-Nororientaline] , and I need its recorded Substrate specificity, relative activity of PSOMT2.
0

====

Km: recorded values
system_name: PSOMT1 ((R,S)-reticuline 7-O-methyltransferase) (Papaver somniferum)
Construct: The full-length cDNA generated by RT-PCR was ligated into pFastBac HTa; His6 (N); made in house; host or cells: Spodoptera frugiperda Sf9 (baculovirus, pFastBac HTa)
Format: biochemical
experimental_setup: PSOMT1; read-out: Km Substrate

Take a look at these entries with their results.
{"compound": "COc1ccc(C[C@H]2c3cc(O)c(OC)cc3CCN2C)cc1O [(S)-Reticuline]", "Km": "16 µM"}
{"compound": "COc1ccc(C[C@@H]2c3cc(O)c(OC)cc3CCN2C)cc1O [(R)-Reticuline]", "Km": "17 µM"}
{"compound": "COc1cc(CC2c3cc(OC)c(O)cc3CCN2C)ccc1O (racemic) [(R,S)-Isoorientaline]", "Km": "17 µM"}

With those in mind, consider the next compound.
Can you look up the measured Km of COc1ccc(C[C@@H]2c3cc(OC)c(O)cc3CCN2C)cc1O [(R)-Protosinomenine] for me?
16 µM

====

Reported kcat Substrate is given for each of the following compounds.
system_name: PSOMT1 ((R,S)-reticuline 7-O-methyltransferase) (Papaver somniferum, UniProt Q6WUC2)
Construct: The full-length cDNA generated by RT-PCR was ligated into pFastBac HTa; His6 (N); made in house; host or cells: Spodoptera frugiperda Sf9 (baculovirus, pFastBac HTa)
Assay type: biochemical
experimental_setup: PSOMT1
Please state the figure in s⁻¹; there is no need to write the unit.

// known answers, use as guide
{"compound": "COc1cc(CC2c3cc(OC)c(O)cc3CCN2C)ccc1O (racemic) [(R,S)-Isoorientaline]", "value_observed": 0.02}
{"compound": "COc1ccc(C(=O)O)cc1O", "value_observed": 0.02}
{"compound": "COc1ccc(C[C@@H]2c3cc(OC)c(O)cc3CCN2C)cc1O [(R)-Protosinomenine]", "value_observed": 0.03}
{"compound": "COc1ccccc1O", "value_observed": 0.1}
{"compound": "COc1ccc(C[C@H]2c3cc(O)c(OC)cc3CCN2C)cc1O [(S)-Reticuline]", "value_observed": 0.07}

Proceeding to the next compound to report its kcat Substrate.
Requested read-out kcat Substrate, target or system PSOMT1 ((R,S)-reticuline 7-O-methyltransferase) (Papaver somniferum, UniProt Q6WUC2), entry COc1ccc(C[C@@H]2c3cc(O)c(OC)cc3CCN2C)cc1O [(R)-Reticuline]
0.07

====

system_name: PSOMT1 ((R,S)-reticuline 7-O-methyltransferase) (Papaver somniferum, UniProt Q6WUC2)
Construct: The full-length cDNA generated by RT-PCR was ligated into pFastBac HTa; His6 (N); made in house; host or cells: Spodoptera frugiperda Sf9 (baculovirus, pFastBac HTa)
Type: biochemical
experimental_setup: 100% activity = 1.5 pmoles/sec/mg total protein; radioassay
Listing of entries alongside the reported Substrate specificity, relative activity of PSOMT1.
Numeric only. Scale: %

{"compound": "O=c1ccc2cc(O)c(O)cc2o1 [Esculetin]", "value_observed": 0}

Endpoint output: Substrate specificity, relative activity of PSOMT1 of COc1ccccc1O [Guaiacol] . Value?
242

Using the record for COC1=C[C@]23CCN(C)[C@H](Cc4ccc(OC)c(O)c42)C3=CC1=O [Salutaridine] , report its Substrate specificity, relative activity of PSOMT1.
0

Substrate specificity, relative activity of PSOMT1 lookup needed for COc1ccc(C[C@H]2NCCc3cc(O)c(OC)cc32)cc1O [(R)-Norprotosinomenine] , thanks.
0

Give the measured Substrate specificity, relative activity of PSOMT1 of COc1cc2c(cc1O)C(Cc1ccc(O)cc1)N(C)CC2 (racemic) [(R,S)-N-Methylcoclaurine] .
0
